Molecular target: AFP158/HLA-A*02:01 complex
Test: SPR
Here the recorded Kd is given for each entry.
The answer is to be given in nM; state only the numeric part.

AS170036 VL1VH1-56N108A (scFv) scFv: QSALTQPRSVSGSPGQSVTISCAGTSSDVGSENYVSWYQQHPGKAPKLMIYQVNKRASGVPDRFSGSKSGNTASLTISGLQAEDEADYYCASYRSSDHNIVFGGGTKLTVLGGGGSGGGGSGGGGSEVQLVESGGGLVQPGGSLRLSCAASGFTFSSYAMSWVRQAPGKGLEWVSTINSGTNSPYYADSVKGRFTISRDNSKNTLYLQMNSLRAEDTAVYYCAKNFFDGSWFLAPPAMDYWGQGTLVTVSSHHHHHH; 27

Qu. Kindly indicate its recorded Kd. Item: AS170036 VL1VH1-57K108S (scFv) scFv: QSALTQPRSVSGSPGQSVTISCAGTSSDVGSENYVSWYQQHPGKAPKLMIYQVNKRASGVPDRFSGSKSGNTASLTISGLQAEDEADYYCASYRSSDHNIVFGGGTKLTVLGGGGSGGGGSGGGGSEVQLVESGGGLVQPGGSLRLSCAASGFTFSSYAMSWVRQAPGKGLEWVSTINSGTGKPYYADSVKGRFTISRDNSKNTLYLQMNSLRAEDTAVYYCAKNFFDGSWFLSPPAMDYWGQGTLVTVSSHHHHHH
Ans. 35

Qu. Kindly indicate its recorded Kd. Item: AS170036 VL1VH1-56Y98I108S (scFv) scFv: QSALTQPRSVSGSPGQSVTISCAGTSSDVGSENYVSWYQQHPGKAPKLMIYQVNKRASGVPDRFSGSKSGNTASLTISGLQAEDEADYYCASYRSSDINIVFGGGTKLTVLGGGGSGGGGSGGGGSEVQLVESGGGLVQPGGSLRLSCAASGFTFSSYAMSWVRQAPGKGLEWVSTINSGTYSPYYADSVKGRFTISRDNSKNTLYLQMNSLRAEDTAVYYCAKNFFDGSWFLSPPAMDYWGQGTLVTVSSHHHHHH
Ans. 2.4

Qu. Kindly indicate its recorded Kd. Item: AS170036 VL1VH1-56Y98Q108S (scFv) scFv: QSALTQPRSVSGSPGQSVTISCAGTSSDVGSENYVSWYQQHPGKAPKLMIYQVNKRASGVPDRFSGSKSGNTASLTISGLQAEDEADYYCASYRSSDQNIVFGGGTKLTVLGGGGSGGGGSGGGGSEVQLVESGGGLVQPGGSLRLSCAASGFTFSSYAMSWVRQAPGKGLEWVSTINSGTYSPYYADSVKGRFTISRDNSKNTLYLQMNSLRAEDTAVYYCAKNFFDGSWFLSPPAMDYWGQGTLVTVSSHHHHHH
Ans. 7
